- Condition: in acetonitrile, 312.75 K
Reported metric: solubility (mole fraction)

> print(dat)
                  entry.smiles             reported.metric  endpoint.result
1  C=CC(=O)Nc1cc(F)c(Br)c(F)c1  solubility (mole fraction)           0.0186

----------
- Condition: in acetonitrile, 348.95 K
Reported metric: solubility (mole fraction)

> print(dat)
                  entry.smiles  endpoint.result
1  C=CC(=O)Nc1cc(F)c(Br)c(F)c1           0.0725

----------
- Condition: in toluene, 301.75 K
Reported metric: solubility (mole fraction)

> print(dat)
                  entry.smiles  endpoint.result
1  C=CC(=O)Nc1cc(F)c(Br)c(F)c1           0.0011

----------
- Condition: in benzene, 296.35 K
Reported metric: solubility (mole fraction)

> print(dat)
                  entry.smiles             reported.metric  endpoint.result
1  C=CC(=O)Nc1cc(F)c(Br)c(F)c1  solubility (mole fraction)           0.0007

----------
- Condition: in toluene, 286.65 K
Reported metric: solubility (mole fraction)

> print(dat)
                  entry.smiles  endpoint.result
1  C=CC(=O)Nc1cc(F)c(Br)c(F)c1           0.0006

----------
- Condition: in ethanol, 318.55 K
Reported metric: solubility (mole fraction)

> print(dat)
                  entry.smiles             reported.metric  endpoint.result
1  C=CC(=O)Nc1cc(F)c(Br)c(F)c1  solubility (mole fraction)            0.044

----------
- Condition: in ethanol, 334.85 K
Reported metric: solubility (mole fraction)

> print(dat)
                  entry.smiles  endpoint.result
1  C=CC(=O)Nc1cc(F)c(Br)c(F)c1           0.0659

----------
- Condition: in methanol, 324.65 K
Reported metric: solubility (mole fraction)

> print(dat)
                  entry.smiles  endpoint.result
1  C=CC(=O)Nc1cc(F)c(Br)c(F)c1            0.036

----------
- Condition: in toluene, 337.65 K
Reported metric: solubility (mole fraction)

> print(dat)
                  entry.smiles  endpoint.result
1  C=CC(=O)Nc1cc(F)c(Br)c(F)c1           0.0059

----------
- Condition: in ethanol, 339.55 K
Reported metric: solubility (mole fraction)

> print(dat)
                  entry.smiles  endpoint.result
1  C=CC(=O)Nc1cc(F)c(Br)c(F)c1            0.074

----------
- Condition: in acetonitrile, 305.35 K
Reported metric: solubility (mole fraction)

> print(dat)
                  entry.smiles  endpoint.result
1  C=CC(=O)Nc1cc(F)c(Br)c(F)c1           0.0139

----------
- Condition: in benzene, 310.75 K
Reported metric: solubility (mole fraction)

> print(dat)
                  entry.smiles  endpoint.result
1  C=CC(=O)Nc1cc(F)c(Br)c(F)c1           0.0015

----------
- Condition: in ethanol, 331.35 K
Reported metric: solubility (mole fraction)

> print(dat)
                  entry.smiles             reported.metric  endpoint.result
1  C=CC(=O)Nc1cc(F)c(Br)c(F)c1  solubility (mole fraction)           0.0604
